TARGET OF ASSAY: BRD4 (first bromodomain, BRD4-BD1) (Homo sapiens)
Construct: BRD4-BD1 (first bromodomain)
PROTOCOL DETAILS: fluorescence polarization competitive inhibition assay
Assay type: binding
READOUT TYPE: Ki (nM)
Unit nM implied. Number only.

stdin: Give reported Ki for Cc1sc2c(c1C)C(c1ccc(Cl)cc1)=N[C@@H](CC(=O)NCCOCCOCCOCCOCCOCCOCCOCCOCc1cn(-c3ccc4c(NCCCNCc5ccc6[nH]ccc6c5)ccnc4c3)nn1)c1nnc(C)n1-2 [105B] (BRD4 (first bromodomain, BRD4-BD1) (Homo sapiens))
stdout: 14.9
